Biological target: T1, monkey C5-mmh (monkey, UniProt P01031 19-1676 (human entry), limits assumed)
T1 construct: Expressed with a C-terminal myc-myc-hexahistidine tag
T1 chain: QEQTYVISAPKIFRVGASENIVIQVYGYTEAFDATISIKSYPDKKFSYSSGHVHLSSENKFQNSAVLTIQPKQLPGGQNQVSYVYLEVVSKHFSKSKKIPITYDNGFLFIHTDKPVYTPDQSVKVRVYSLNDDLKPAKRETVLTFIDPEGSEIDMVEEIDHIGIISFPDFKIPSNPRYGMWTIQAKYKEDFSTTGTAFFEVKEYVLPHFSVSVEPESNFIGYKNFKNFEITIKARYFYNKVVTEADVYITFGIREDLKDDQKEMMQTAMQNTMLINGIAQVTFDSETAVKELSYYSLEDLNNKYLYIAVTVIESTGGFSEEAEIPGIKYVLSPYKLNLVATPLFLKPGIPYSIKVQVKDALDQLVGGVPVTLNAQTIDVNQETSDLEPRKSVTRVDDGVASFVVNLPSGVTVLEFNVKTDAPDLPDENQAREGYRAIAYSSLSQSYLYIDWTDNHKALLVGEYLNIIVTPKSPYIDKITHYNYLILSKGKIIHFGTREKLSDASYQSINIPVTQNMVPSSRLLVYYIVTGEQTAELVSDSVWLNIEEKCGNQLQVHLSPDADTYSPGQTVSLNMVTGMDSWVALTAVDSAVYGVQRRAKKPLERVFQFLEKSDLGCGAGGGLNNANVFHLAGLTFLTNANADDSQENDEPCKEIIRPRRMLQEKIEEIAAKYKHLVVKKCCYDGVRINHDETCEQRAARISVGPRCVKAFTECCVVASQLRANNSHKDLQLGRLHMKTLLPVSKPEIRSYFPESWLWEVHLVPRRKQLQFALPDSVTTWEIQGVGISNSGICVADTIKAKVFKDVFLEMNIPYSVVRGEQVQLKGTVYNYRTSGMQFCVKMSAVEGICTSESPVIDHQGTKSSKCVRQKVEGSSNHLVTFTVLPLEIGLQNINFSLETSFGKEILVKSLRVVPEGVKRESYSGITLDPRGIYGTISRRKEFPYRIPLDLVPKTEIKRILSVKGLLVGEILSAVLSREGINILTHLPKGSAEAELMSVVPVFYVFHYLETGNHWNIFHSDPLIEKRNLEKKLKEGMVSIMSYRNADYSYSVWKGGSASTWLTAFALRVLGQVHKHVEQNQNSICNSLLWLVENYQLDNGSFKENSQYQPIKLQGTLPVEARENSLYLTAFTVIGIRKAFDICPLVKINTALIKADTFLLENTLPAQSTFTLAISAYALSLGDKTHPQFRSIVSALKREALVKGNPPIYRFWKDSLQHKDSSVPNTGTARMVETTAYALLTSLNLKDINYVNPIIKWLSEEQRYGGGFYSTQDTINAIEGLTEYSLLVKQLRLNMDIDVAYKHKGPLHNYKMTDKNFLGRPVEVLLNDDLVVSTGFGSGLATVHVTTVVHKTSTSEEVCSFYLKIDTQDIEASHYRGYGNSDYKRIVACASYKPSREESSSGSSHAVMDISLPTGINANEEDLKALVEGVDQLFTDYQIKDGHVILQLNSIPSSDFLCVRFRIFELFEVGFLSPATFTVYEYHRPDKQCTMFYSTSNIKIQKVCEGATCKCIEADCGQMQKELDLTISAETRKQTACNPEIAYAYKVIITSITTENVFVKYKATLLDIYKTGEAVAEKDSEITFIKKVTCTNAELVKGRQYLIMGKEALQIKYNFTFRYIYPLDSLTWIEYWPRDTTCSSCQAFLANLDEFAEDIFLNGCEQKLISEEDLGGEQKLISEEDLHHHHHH
Test: SPR, mAb captured by anti-hFc, 25C
Catalogue of binders with associated koff
Provide the reading as a plain figure in s⁻¹.

In the examples that follow, each entry is paired with its recorded koff.
>>> measurement("H4H12170P (antibody, human IgG4, V domains shown) VH: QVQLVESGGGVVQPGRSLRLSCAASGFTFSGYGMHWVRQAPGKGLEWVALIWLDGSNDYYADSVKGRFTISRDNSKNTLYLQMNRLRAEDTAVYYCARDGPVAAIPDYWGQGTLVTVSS VL: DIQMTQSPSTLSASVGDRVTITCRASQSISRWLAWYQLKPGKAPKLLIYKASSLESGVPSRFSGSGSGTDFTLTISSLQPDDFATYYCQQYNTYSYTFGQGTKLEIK")
"5.21e-05"
>>> measurement("H4H12166P7 (antibody, human IgG4, V domains shown, human IgG4 Fc with S108P hinge mutation) VH: QVQLQESGPGLVKPSETLSLTCTVSGDSVSSSYWTWIRQPPGKGLEWIGYIYYSGSSNYNPSLKSRATISVDTSKNQFSLKLSSVTAADTAVYYCAREHNVDTTMIFDYWGQGTLVTVSS VL: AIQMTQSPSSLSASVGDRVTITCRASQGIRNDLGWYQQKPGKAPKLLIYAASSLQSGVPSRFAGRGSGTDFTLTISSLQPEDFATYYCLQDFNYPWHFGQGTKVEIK")
0.00633
>>> measurement("H4H12164P (antibody, human IgG4, V domains shown) VH: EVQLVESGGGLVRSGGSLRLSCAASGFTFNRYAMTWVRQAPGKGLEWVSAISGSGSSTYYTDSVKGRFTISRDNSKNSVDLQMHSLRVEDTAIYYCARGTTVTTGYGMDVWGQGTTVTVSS VL: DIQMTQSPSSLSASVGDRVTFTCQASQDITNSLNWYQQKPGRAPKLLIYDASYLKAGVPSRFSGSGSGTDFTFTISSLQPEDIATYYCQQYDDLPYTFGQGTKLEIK")
0.00153
>>> measurement("H4H12169P (antibody, human IgG4, V domains shown) VH: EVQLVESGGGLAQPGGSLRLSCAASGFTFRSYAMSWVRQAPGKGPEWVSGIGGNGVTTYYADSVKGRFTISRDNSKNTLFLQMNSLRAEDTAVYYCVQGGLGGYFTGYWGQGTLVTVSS VL: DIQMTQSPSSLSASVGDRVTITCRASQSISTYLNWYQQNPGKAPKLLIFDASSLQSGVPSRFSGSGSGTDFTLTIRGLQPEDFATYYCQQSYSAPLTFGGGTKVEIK")
0.00455

Consider the additional binder presented here.
Give reported koff value for H4H12163P (antibody, human IgG4, V domains shown) VH: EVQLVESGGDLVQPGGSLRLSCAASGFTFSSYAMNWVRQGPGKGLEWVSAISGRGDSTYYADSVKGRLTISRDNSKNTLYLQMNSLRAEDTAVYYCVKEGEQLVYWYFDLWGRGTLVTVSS VL: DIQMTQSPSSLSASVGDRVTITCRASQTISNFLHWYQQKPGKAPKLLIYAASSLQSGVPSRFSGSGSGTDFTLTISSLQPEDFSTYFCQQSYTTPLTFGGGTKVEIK 0.000775

Cited source: patent US20170355757A1
